Target: T1, ML-IAP-BIR (human, UniProt Q96CA5 63-179)
T1 construct: range 63-179; Expressed in E. coli from pET15b and purified on Ni-agarose; also called BIR domain of ML-IAP
T1 sequence (looked up): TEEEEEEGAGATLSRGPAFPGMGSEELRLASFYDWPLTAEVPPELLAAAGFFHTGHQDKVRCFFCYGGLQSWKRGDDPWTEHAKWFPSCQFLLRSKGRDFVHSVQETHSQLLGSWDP
Assay: fluorescence polarization competition, SMAC-FAM probe
experimental endpoint: pKi
Just so you know, pKi here is -log10 of the concentration in molar units; reply with that number alone.

AEAVAWKSE; 5.03
AQAVAWKSE; 5.15
ATAVIEKSE; 5.37
AVPWGLKSE; 6.38
AVPWIGKSE; 6.48

Ask | Quick one: pKi for AIPFEEKSE ?
Reply | 6.36

Ask | Now consider AVGVPWKSE and answer again.
Reply | 5.22

Values compiled from patent US20120058953A1.
